# Test system: ANKA strain of P. berghei
# Experimental Protocol: Single dose STI in vivo screen in infected mice
# Design: species or system Plasmodium berghei
# Test Context: single 10 mg/kg po in SSV; untreated 6-7 days
Let's look at some compounds and their measured Survival (days) 10 mg/kg SSV po.
Note: unit days is implicit; provide only the numeric part.

Some compounds with recorded Survival (days) 10 mg/kg SSV po:
NC(=O)N[C@H]1CC[C@]2(CC1)OOC1(O2)C2CC3CC(C2)CC1C3 (some centres unmarked) [OZ221]    7.0
O=C(O)C1CCN(C(=O)C[C@H]2CC[C@]3(CC2)OO[C@]2(O3)C3CC4CC(C3)CC2C4)CC1 [OZ312]    7.2

Turning to the following compound.
Survival (days) 10 mg/kg SSV po lookup needed for C[C@H]1[C@H](OC(=O)CCC(=O)O)O[C@@H]2O[C@@]3(C)CC[C@H]4[C@H](C)CC[C@@H]1[C@@]24OO3 [AS, artesunate, reference compound] , thanks. 7.0

This collection of values is drawn from patent US6825230B2.
